System: Yap1 mRNA
Assay: Dose-dependent inhibition of human Yap1 in SNU-449 cells (Example 9, RTS36584)
Type: cell-based
Settings: 125.0 nM, free uptake, approximately 48 hours
Experimental: Modified oligonucleotides described in the studies above were tested at various doses in SNU-449 cells. […] After approximately 48 hours, Yap1 mRNA levels were measured as previously described using the Human Yap1 primer-probe set RTS36584. Yap1 mRNA levels were normalized to total RNA content, as measured by RIBOGREEN®. […] IC50s were calculated using a linear regression on a log/linear plot of the data in excel.
Strand notation (5' to 3'): a small letter for the sugar, then the base; units joined by * are phosphorothioate-linked, units joined directly phosphodiester-linked; [ ] holds rarer units or linkages, { } end groups; capitals alone tell only the bases. e = 2'-O-(2-methoxyethyl) (MOE); k = constrained ethyl (cEt); [5mC] = 5-methylcytosine; d = 2'-deoxy (DNA); m = 2'-O-methyl
% UTC (Yap1 mRNA) values for the substances below.

// known answers, use as guide
substance	recorded-result
1198728 (TATTAGAGTATGTGGC; modified gapmer, further chemistry not given here) [compound 1198728]	28 % UTC
1198213 (kA*kT*dA*dT*dT*dA*dG*dA*dG*dT*dA*eT*eG*eT*kG*kG) [compound 1198213]	33 % UTC
1198268 (kA*kA*dG*dT*dG*dT*dA*dT*dG*dT*d[5mC]*eA*eG*eA*kA*kG; antisense) [compound 1198268]	52 % UTC
1200803 (kG*kG*kT*dA*dT*mA*dA*d[5mC]*dT*dG*dG*dG*d[5mC]*kA*kA*kA; antisense) [compound 1200803]	52 % UTC
1198623 (CTAAGTAAGGTTTCCC; modified gapmer, further chemistry not given here) [compound 1198623]	24 % UTC
1197177 (kA*kT*kT*dG*dT*d[5mC]*dT*d[5mC]*dA*dT*dG*d[5mC]*d[5mC]*kT*kT*kA; antisense) [compound 1197177]	29 % UTC
1198958 (kT*kG*dT*dA*dT*dG*dT*d[5mC]*dA*dG*dA*kA*dG*kA*dG*kT; antisense) [compound 1198958]	39 % UTC
1198203 (kG*kG*dA*dA*dA*dT*dT*dG*dT*d[5mC]*dT*e[5mC]*eA*eT*kG*k[5mC]) [compound 1198203]	51 % UTC

Q: Look up % UTC (Yap1 mRNA) of 1198507 (kT*kT*dA*dT*dA*dT*dG*dG*dT*dT*dT*eT*kG*eT*kG*eT; antisense) [compound 1198507] and report it.
Ans: 57 % UTC
